Taken from PubChem BioAssay AID686978.

# protocolNotes: qHTS for Inhibitors of human tyrosyl-DNA phosphodiesterase 1 (TDP1): qHTS in cells in absence of CPT; also: nearly all actives have a fitted effect of over 55% in size
# runConditions: DT40 Tdp1-/- hTDP1 cells, no CPT, ATP luminescence, 48 h
About 64,000 (15%) of roughly 420,000 compounds were called active. Another 27% or so got no clear call; they are omitted. Calls follow the shape of the dose curve; as a rule, active = well fitted inhibition curve with a large enough effect; inconclusive = small, poorly fitted or top-dose-only effect; inactive = flat fitted curve, though single readings scatter. These entries were drawn from the full list.
Pick from 1 = active, -1 = inactive when you respond.

compound: CCOC(=O)N1CCC(Nc2c(NCCN3CCN(c4cccc(Cl)c4)CC3)c(=O)c2=O)CC1
label: -1

compound: CCc1nn(CC(=O)N2CCN(c3cccc(C(F)(F)F)c3)CC2)c(=O)c2cc3occc3n12
label: -1

compound: C#CC(C)(CC)NC(=O)Cn1nnc(-c2ccc(OCc3c(F)cccc3Cl)cc2)n1 (stereo not drawn)
label: 1

compound: COc1ccc(NC(=O)c2sc3nc[nH]c(=O)c3c2C)cc1
label: -1

compound: C[C@H](NC(=O)OC(C)(C)C)c1nnc(SCC(=O)Nc2ccc(Br)cc2)o1
label: -1

Exercise: // outcome(item) with item = `COCCCNC(=O)/C=C/c1ccc(OCc2c(F)cccc2Cl)cc1`
Solution: -1

Exercise: Give the logged outcome of this assay for the following compound: `CCOC(=O)N1CCC(Nc2c(NCCCN3CCN(c4ccc(OC)cc4)CC3)c(=O)c2=O)CC1`
Solution: -1

Exercise: Give the logged outcome of this assay for the following compound: `CCOC(=O)c1c(C)[nH]c(CCC(=O)NCCCN2CCN(c3cccc(Cl)c3)CC2)c1C`
Solution: 1

Exercise: Which result was noted for this compound in the test: `c1ccc(CCN2CN=C(Nc3nc4ccccc4o3)NC2)cc1`
Solution: -1

Exercise: Lab log entry: `COc1ccc(N2CCN(CCNC(=O)Nc3cc(Cl)ccc3Cl)CC2)cc1` — outcome as called in the assay?
Solution: -1

Exercise: Dear colleague, could you share the recorded outcome for COc1ccc(N2C(=O)C3CCCN3C2c2cccc(OC)c2)cc1 (stereo not drawn) when you have a moment?
Solution: -1

Exercise: Recorded call for `Cc1[nH]c2ccccc2c1/C=N/NC(=O)CNC(=O)c1ccc2c(c1)OCO2` ?
Solution: -1

---

# protocolNotes: qHTS for Inhibitors of human tyrosyl-DNA phosphodiesterase 1 (TDP1): qHTS in cells in absence of CPT; also: nearly all actives have a fitted effect of over 55% in size
# runConditions: DT40 Tdp1-/- hTDP1 cells, no CPT, ATP luminescence, 48 h
About 64,000 (15%) of roughly 420,000 compounds were called active. Not shown: some 27% with an inconclusive outcome. Calls follow the shape of the dose curve; as a rule, active = well fitted inhibition curve with a large enough effect; inconclusive = small, poorly fitted or top-dose-only effect; inactive = flat fitted curve, though single readings scatter. Not all results are given here.
Your response should consist of one outcome taken from true (1) (active), false (0) (inactive)

Please review the following examples before continuing.
compound: CC(C)CCOc1ccc(C(=O)Nc2cc(S(=O)(=O)N3CCOCC3)ccc2N2CCOCC2)cc1
label: true (1)

compound: COCCN1CCn2c(nc3cc(NS(C)(=O)=O)ccc32)C1
label: false (0)

compound: O=C(Nc1ccc(N2CCOCC2)c(Cl)c1)c1ccc(S(=O)(=O)N2CCOCC2)cc1
label: true (1)

Exercise: What call does the record list for `COc1ccc2c(c1)C(C)=CC(C)(C)N2C(=O)CNCc1ccc2c(c1)OCO2` ?
Solution: true (1)

Exercise: For this compound, state the assay outcome: `CCOC(=O)C1CCN(c2ccc(C(=O)O)cc2[N+](=O)[O-])CC1`
Solution: false (0)

Exercise: Could you check what this test reported for `O=C(Nc1cccc2cccnc12)c1cccc2c(Br)cccc12` ?
Solution: false (0)

Exercise: Can you look up the reported call for CC(C(=O)N1CCN(c2ccccc2F)CC1)c1ccc([N+](=O)[O-])cc1 (configuration not stated) for me?
Solution: false (0)

Exercise: In this assay, the call recorded for COc1ccc(CN2CCC3(CCC(CNC(=O)c4ccco4)O3)CC2)cc1OC (configuration not stated) was what?
Solution: false (0)

Exercise: For `COc1ccc(NC(=O)CNc2cc(S(=O)(=O)N3CCOCC3)ccc2N2CCOCC2)c(OC)c1` , which call appears in the assay record?
Solution: false (0)

Exercise: Hello, I am checking results. What call was entered for `C[N+]1(CC(=O)c2cccs2)CCOCC1` ?
Solution: false (0)

Exercise: What did this assay record as the result for `COc1ccc(Cn2c(-c3ccc(Cl)cc3)c[n+]3ccccc23)cc1` ?
Solution: true (1)

---

# protocolNotes: qHTS for Inhibitors of human tyrosyl-DNA phosphodiesterase 1 (TDP1): qHTS in cells in absence of CPT; also: nearly all actives have a fitted effect of over 55% in size
# runConditions: DT40 Tdp1-/- hTDP1 cells, no CPT, ATP luminescence, 48 h
The whole screen tested about 420,000 compounds, of which about 64,000 (15%) were called active. Roughly 27% stayed inconclusive and do not appear here. The call rests on the fitted dose curve; in most records, active means well fitted inhibition curve with a large enough effect; inconclusive means small, poorly fitted or top-dose-only effect; inactive means flat fitted curve, though single readings scatter. These entries were drawn from the full list.
Valid outcomes are listed here; reply with one: active, inactive

As a guide, the following entries are already answered.
compound: O=C(CCCCCN1C(=O)c2cccc3cccc(c23)C1=O)NCc1ccco1
label: inactive
//
compound: COc1cccc(CNC(=O)c2ccc3c(c2)sc2nc(-c4cccc(OC)c4)cn23)c1
label: active
//
compound: CCC(=O)Nc1sc(C(=O)Nc2ccccc2)c(C)c1C(=O)OC
label: inactive
//
compound: CNC(=O)C1CC(=O)N(c2ccc(OCC(=O)Nc3ccccc3C)cc2)C1 (configuration not stated)
label: inactive
//
compound: COCCN(C(=S)Nc1ccccc1OC)C1CCN(C(C)C)CC1
label: inactive
//
compound: O=C(Nc1ccccc1N1CCOCC1)c1ccncc1
label: inactive
//
compound: CCOC(=O)Nc1sc(C(=O)N(C)C)c(C)c1C(=O)OCC
label: inactive
//
compound: CCOC(=O)COn1c(=O)c(-c2ccc(OCC)cc2)[n+]([O-])c2ccccc21
label: inactive

Exercise: What did this assay record as the result for `COc1cccc(CNC(=O)CCc2nc(-c3ccc(C)cc3)no2)c1` ?
Solution: inactive

---

# protocolNotes: qHTS for Inhibitors of human tyrosyl-DNA phosphodiesterase 1 (TDP1): qHTS in cells in absence of CPT; also: nearly all actives have a fitted effect of over 55% in size
# runConditions: DT40 Tdp1-/- hTDP1 cells, no CPT, ATP luminescence, 48 h
The campaign covered roughly 420,000 compounds. About 64,000 (15%) were called active. Not shown: some 27% with an inconclusive outcome. The call rests on the fitted dose curve; in most records, active means well fitted inhibition curve with a large enough effect; inconclusive means small, poorly fitted or top-dose-only effect; inactive means flat fitted curve, though single readings scatter. Only a sample is shown.
Allowed answers: active, inactive

Worked examples, 10 molecules total:
molecule: COc1cc(-c2cc(C(=O)OCC(=O)Nc3ccc4c(c3)OCO4)c3ccccc3n2)cc(OC)c1OC
label: inactive
--
molecule: O=C(C1=C(O)C(=O)N(c2ncccn2)C1c1cccs1)c1ccco1 (stereo not drawn)
label: inactive
--
molecule: C=CC(=O)c1ccc2ccccc2c1
label: active
--
molecule: O=C(COC(=O)c1cccs1)Nc1ccccc1Cl
label: inactive
--
molecule: Clc1ccc(CSc2nnc([C@@H]3CCCN3)o2)cc1
label: inactive
--
molecule: COc1cc(/C=C2\CCCc3c2nc2ccccc2c3C(=O)O)cc(Cl)c1O
label: inactive
--
molecule: CCOC(=O)c1cccc(NC(=O)CN2C(=O)C3CC=CCC3C2=O)c1 (stereo not drawn)
label: inactive
--
molecule: COc1cc2c(C(=O)N(C)c3cc(Cl)ccc3OC)cn(C)c(=O)c2cc1OC
label: inactive
--
molecule: O=C(COC(=O)c1c2c(nc3ccccc13)/C(=C\c1cccs1)CCC2)Nc1ccccc1Cl
label: active
--
molecule: CC(=NCc1ccco1)C1=C(O)c2ccccc2C1=O
label: inactive

Exercise: Can you look up the reported call for CC(C)NC(=O)c1ccccc1S(=O)c1ccccc1C#N (stereo not drawn) for me?
Solution: inactive

Exercise: Call for entry `Cc1noc(C)c1S(=O)(=O)N(C)C[C@H]1Oc2ccc(NC(=O)C3CC3)cc2C(=O)N([C@H](C)CO)C[C@@H]1C` :
Solution: inactive

Exercise: Can you look up the reported call for `CCCn1c(SCC(=O)Nc2ccc(C)c(S(=O)(=O)N3CCOCC3)c2)n[nH]c1=O` for me?
Solution: inactive

---

# protocolNotes: qHTS for Inhibitors of human tyrosyl-DNA phosphodiesterase 1 (TDP1): qHTS in cells in absence of CPT; also: nearly all actives have a fitted effect of over 55% in size
# runConditions: DT40 Tdp1-/- hTDP1 cells, no CPT, ATP luminescence, 48 h
# Procedure: Human tyrosyl-DNA phosphodiesterase 1 (TDP1) is a novel repair gene, and we propose to use it as a new target for anticancer drug development. […] For the primary screen, Tdp1-/-;hTDP1 cells will be exposed to small molecules in the presence or absence of CPT, and their growth kinetics will be evaluated after 48 hours by measuring ATP activity. […] The hit compounds will then be evaluated in the presence or absence of CPT using Tdp1-/- cells. […]
In all, about 420,000 compounds went through this assay and about 64,000 (15%) were called active. Inconclusive results (about 27%) are left out. Calls follow the shape of the dose curve; as a rule, active = well fitted inhibition curve with a large enough effect; inconclusive = small, poorly fitted or top-dose-only effect; inactive = flat fitted curve, though single readings scatter. A selection follows.
Return exactly one item of active, inactive

// known answers, use as guide
molecule: COCCn1c(=O)c(-c2ccc(OC)cc2)nc2cnc(Oc3cccc(Cl)c3)nc21
label: inactive

molecule: CCNc1nc(N)nc(-c2cc(Cl)ccc2OC)n1
label: inactive

molecule: Cc1csc2nc(COC(=O)c3ccccc3NC(=O)c3ccccc3Cl)cc(=O)n12
label: active

molecule: CCOC(=O)C(C)n1nc(-c2ccccc2)c2ccccc2c1=O (centres undefined)
label: active

molecule: O=C(O)Cn1c(Cc2ccccc2)nc2ccccc21
label: inactive

Exercise: I'd appreciate the recorded outcome for `Cc1oc(CC(C)C)c(CN2CCCC2)c1C(=O)O` from this test.
Solution: inactive
